# test name: endothelial E-selectin expression blockers – imaging, HUVEC, immunofluorescence, MLSMR starter and 10KST1 sets, primary screen (AID 487);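 further: 100% = median nuclei count of all wells on the same plate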
# condition notes: HUVEC TNFalpha-induced E-selectin immunofluorescence imaging, at 2 µM; measured here: cell number, toxicity
assay endpoint: nuclei count (%)
// return numeric value only (unit: %, not printed)

Summary for this compound, Cc1ccc2c(c1)NC(=O)C(CC(=O)NCCN(CC(C)C)CC(C)C)O2 (stereo not given) : nuclei count is 125

Reported nuclei count for CCSc1nc2ccccc2n1CC(N)=O was 113

Summary for this compound, COc1ccc(-n2c(SCC(=O)N3CCCCC3C)nnc2-c2cccnc2)cc1 (stereo not given) : nuclei count is 103

Documented nuclei count of CCOC(=O)Cn1nnc(-c2ccc(SC)cc2)n1 : 116

O=C(CN1CCCN(S(=O)(=O)c2ccc(Br)cc2)CC1)Nc1ccc2c(c1)OCO2 has a reported nuclei count of 84.9

Just so you know, measured nuclei count for CCOC(=O)CN1CC23C=CC(O2)C(C(=O)NC2CCCC2)C3C1=O (stereo not given) came out at 119

Note to self: nuclei count recorded for Cc1nc2ccc(S(=O)(=O)NC(C(=O)Nc3nccs3)C(C)C)cc2s1 (stereo not given) was 120

The reported nuclei count of the compound N#Cc1cnc(SCC(=O)c2ccccc2)nc1N was 120

nuclei count recorded for this compound, Cc1ccc(S(=O)(=O)N2CCOCC2)cc1C(=O)Nc1nc(-c2cccnc2)cs1 , is 100

Reported nuclei count for CCn1c(SCC(=O)Nc2ccc(C(=O)OC)cc2)nnc1-c1cccs1 was 106

The compound listed as Cn1c2c(c(=O)n(C)c1=O)C(CC(=O)Nc1ccccc1)C(=O)N2 (stereo not given) shows nuclei count equal to 152

Value of measured nuclei count for the entry COc1cccc(C2C(C(=O)c3ccc(C)o3)=C(O)C(=O)N2CCCN(C)C)c1 (stereo not given) : 111

In plain terms, COc1ccc(OCC(=O)N2CCN(C(=O)Cc3ccccc3)CC2)cc1 has a documented nuclei count of 101

// nuclei count value for Cc1ccccc1NC(=O)NCCCN1CCN(C2CCCCC2)CC1 : 108

Entry COc1ccccc1Cn1nnc2c(=O)[nH]c(C3CCN(C(=O)c4ccccc4Cl)CC3)nc21 — recorded nuclei count = 98

The reported value for O=C(CN1C(=O)CC(c2ccco2)Sc2ccccc21)Nc1ccccc1F (stereo not given) in terms of nuclei count is 110

Measured nuclei count of O=S(=O)(NCc1cn2ccsc2n1)c1ccc2c(c1)OCCO2 : 72.2

Looking up CN1CCc2c(sc3c2c(=O)n(-c2ccccc2)c2nnc(SCc4ccc(F)cc4)n32)C1 , I found its nuclei count recorded as 210

Memo: CCOC(=O)C(NC(=O)OC(C)C)(Nc1nccs1)C(F)(F)F (stereo not given) , reported nuclei count: 108

The value of nuclei count measured for the compound COc1ccc(-n2c(SCC#N)nc3ccccc3c2=O)cc1 turned out to be 118

# compound O=C(Nc1ccc(NC(=O)c2ccco2)nc1)c1cccnc1 ; its nuclei count = 89.3

Just so you know, measured nuclei count for CCN(CC)CCOC(=O)c1c(C)oc2ccc(O)cc12 came out at 106

Form: compound = Cc1cc(C)c2c(=O)n(CC(=O)NCCCN3CCOCC3)sc2n1 ; nuclei count = 106

// recorded nuclei count for COC(=O)[C@H](C)NC(=O)Nc1cccc(C(F)(F)F)c1 : 109

Noted for C=CCN1C(=O)CS/C1=C(\C#N)S(=O)(=O)c1ccc(C)cc1 : its nuclei count reads 104

# nuclei count of COc1ccc(-c2nnc(SCC(=O)c3cc(C)n(Cc4cccs4)c3C)o2)cc1 = 161

nuclei count reported for this compound Cc1cc(C(=O)OCC(=O)N2c3ccccc3CC2C)c(C)o1 (stereo not given) : 111

Kindly note the recorded nuclei count for N=c1c(C(=O)NCc2ccc3c(c2)OCO3)cc2c(=O)n3ccccc3nc2n1Cc1cccnc1 , which is 109

Per the record, O=C(CN(CCc1ccccc1)C(=O)CN1C(=O)COc2ccccc21)NCc1ccco1 has nuclei count of 97.6

Per the records, this compound ( NS(=O)(=O)c1ccc(CCNC(=O)c2cccnc2)cc1 ) has nuclei count equal to 107

Please fill in: nuclei count reported for CCn1ncc(Cl)c1C(=O)Nc1ccncc1 = 101

The recorded nuclei count for c1ccc2c(c1)Cc1cc(CN3CCOCC3)ccc1-2 is 128

Looking up COc1ccc(CNC(=O)c2nnn(Cc3ccc(OC)cc3)c2N)cc1 , I found its nuclei count recorded as 92.2

The value of nuclei count measured for the compound Cc1cccc(NC(=O)Nc2cccc(C#N)c2)n1 turned out to be 121

Looking up CCc1nc(N)c(C#N)c(-c2ccncc2)c1C , I found its nuclei count recorded as 106
